# Test system: Candida duobushaemulonii
# protocol-notes: Antifungal activity against Candida duobushaemulonis CBS 7799 by CLSI standard M27 broth microdilution method
# Format: functional
# condition-label: Candidozyma duobushaemuli
Here, each record is paired with measured MIC data.
endpoint: MIC (µg/mL)

[[record]]
compound = "C[C@@H]1OC(c2cc(Cl)c3ccccc3c2O)=NC1C(=O)Nc1ccc2ncsc2c1 (single isomer, unassigned)"
endpoint = "MIC"
inequality_sign = "="
observed_measurement = 0.06

[[record]]
compound = "C[C@H]1OC(c2ccc(Cl)cc2O)=N[C@H]1C(=O)OCc1ccccc1"
endpoint = "MIC"
inequality_sign = "="
observed_measurement = 0.5

[[record]]
compound = "CC[C@H](C)C[C@H](C)CCCCCCCCC(=O)N[C@H]1C[C@@H](O)[C@@H](NCCN)NC(=O)[C@@H]2[C@@H](O)CCN2C(=O)[C@H]([C@H](O)CCN)NC(=O)[C@H]([C@H](O)[C@@H](O)c2ccc(O)cc2)NC(=O)[C@@H]2C[C@@H](O)CN2C(=O)[C@H]([C@@H](C)O)NC1=O"
endpoint = "MIC"
inequality_sign = "="
observed_measurement = 0.25

[[record]]
compound = "C[C@@H]1[C@H](O)[C@@H](C)/C=C/C=C/C=C/C=C/C=C/C=C/C=C/[C@H](O[C@@H]2O[C@H](C)[C@@H](O)[C@H](N)[C@@H]2O)C[C@@H]2O[C@](O)(C[C@@H](O)C[C@@H](O)[C@H](O)CC[C@@H](O)C[C@@H](O)CC(=O)O[C@H]1C)C[C@H](O)[C@H]2C(=O)O"
endpoint = "MIC"
inequality_sign = "="
observed_measurement = 4

[[record]]
compound = "OC(Cn1cncn1)(Cn1cncn1)c1ccc(F)cc1F"
endpoint = "MIC"
inequality_sign = ">"
observed_measurement = 64


====

# Tested on: HepG2
# protocol-notes: Cytotoxicity against human HepG2 cells assessed as reduction in cell viability by XTT assay
# Type: cell-based
CC50 strictly less than 60 mg/L = 1.0. Otherwise 0.0.

[[record]]
molecule = "CC[C@H](C)C[C@H](C)CCCCCCCCC(=O)N[C@H]1C[C@@H](O)[C@@H](NCCN)NC(=O)[C@@H]2[C@@H](O)CCN2C(=O)[C@H]([C@H](O)CCN)NC(=O)[C@H]([C@H](O)[C@@H](O)c2ccc(O)cc2)NC(=O)[C@@H]2C[C@@H](O)CN2C(=O)[C@H]([C@@H](C)O)NC1=O"
category = 1.0

[[record]]
molecule = "C#CCNC(=O)C1N=C(c2cc(Cl)c3ccccc3c2O)O[C@H]1C (single isomer, unassigned)"
category = 1.0

[[record]]
molecule = "OC(Cn1cncn1)(Cn1cncn1)c1ccc(F)cc1F"
category = 0.0

[[record]]
molecule = "C[C@H]1OC(c2ccc(N=[N+]=[N-])cc2O)=N[C@H]1C(=O)OCc1ccccc1"
category = 0.0

[[record]]
molecule = "C[C@@H]1OC(c2ccc3ccccc3c2O)=N[C@@H]1C(=O)OCc1ccccc1"
category = 0.0

[[record]]
molecule = "C[C@@H]1OC(c2cc(Cl)c3ccccc3c2O)=N[C@@H]1C(=O)OCc1ccccc1"
category = 1.0

[[record]]
molecule = "C[C@H]1OC(c2cc(I)ccc2O)=N[C@H]1C(=O)OCc1ccccc1"
category = 0.0

[[record]]
molecule = "C[C@H]1OC(c2ccc(Br)cc2O)=N[C@H]1C(=O)OCc1ccccc1"
category = 0.0

[[record]]
molecule = "C[C@H]1OC(c2cc(Br)ccc2O)=N[C@H]1C(=O)OCc1ccccc1"
category = 0.0


====

# Tested on: HepG2
# protocol-notes: Cytotoxicity against human HepG2 cells assessed as reduction in cell viability by XTT assay
# Format: cell-based
endpoint: CC50 (µg/mL)

[[record]]
molecule = "C[C@@H]1OC(c2cc(Br)c3ccccc3c2O)=N[C@@H]1C(=O)OCc1ccccc1 (single isomer, unassigned)"
target_system = "HepG2"
inequality_sign = "="
observed_measurement = 9

[[record]]
molecule = "C[C@@H]1OC(c2cc(Cl)c3ccccc3c2O)=NC1C(=O)Nc1ccccc1NC(=O)[C@@H]1N=C(c2cc(Cl)c3ccccc3c2O)O[C@@H]1C (single isomer, unassigned)"
target_system = "HepG2"
inequality_sign = "="
observed_measurement = 90

[[record]]
molecule = "C[C@H]1OC(c2ccccc2O)=N[C@H]1C(=O)OCc1ccccc1"
target_system = "HepG2"
inequality_sign = "="
observed_measurement = 102

[[record]]
molecule = "C[C@@H]1OC(c2cc(Cl)c3ccccc3c2O)=N[C@@H]1C(=O)OC[C@H]1COC(C)(C)O1"
target_system = "HepG2"
inequality_sign = "="
observed_measurement = 7.2

[[record]]
molecule = "COC(=O)C1N=C(c2cc(Cl)c3ccccc3c2O)O[C@H]1C (single isomer, unassigned)"
target_system = "HepG2"
inequality_sign = "="
observed_measurement = 11

[[record]]
molecule = "C[C@@H](O)[C@H](NC(=O)c1ccc2ccccc2c1O)C(=O)OCc1ccccc1"
target_system = "HepG2"
inequality_sign = "="
observed_measurement = 40

[[record]]
molecule = "COC(=O)[C@H]1N=C(c2ccc3ccccc3c2O)O[C@H]1C"
target_system = "HepG2"
inequality_sign = "="
observed_measurement = 84

[[record]]
molecule = "C[C@@H]1OC(c2cc(Cl)c3ccccc3c2O)=NC1C(=O)Nc1ccc2ncsc2c1 (single isomer, unassigned)"
target_system = "HepG2"
inequality_sign = "="
observed_measurement = 16

[[record]]
molecule = "CCNC(=O)[C@H]1N=C(c2ccc3ccccc3c2O)O[C@H]1C"
target_system = "HepG2"
inequality_sign = ">"
observed_measurement = 128

[[record]]
molecule = "COc1cccc(O)c1C1=N[C@@H](C(=O)OCc2ccccc2)[C@@H](C)O1"
target_system = "HepG2"
inequality_sign = "="
observed_measurement = 101

[[record]]
molecule = "C[C@H]1OC(c2ccc(Cl)cc2O)=N[C@H]1C(=O)OCc1ccccc1"
target_system = "HepG2"
inequality_sign = "="
observed_measurement = 95

[[record]]
molecule = "C=CCOC(=O)C1N=C(c2cc(Cl)c3ccccc3c2O)O[C@H]1C (single isomer, unassigned)"
target_system = "HepG2"
inequality_sign = "="
observed_measurement = 11

[[record]]
molecule = "C[C@H]1OC(c2cc(F)ccc2O)=N[C@H]1C(=O)OCc1ccccc1"
target_system = "HepG2"
inequality_sign = ">"
observed_measurement = 128

[[record]]
molecule = "C[C@H]1OC(c2ccc(I)cc2O)=N[C@H]1C(=O)OCc1ccccc1"
target_system = "HepG2"
inequality_sign = "="
observed_measurement = 62

[[record]]
molecule = "C[C@@H]1OC(c2cc(Cl)c3ccccc3c2O)=NC1C(=O)OCc1ccoc1 (single isomer, unassigned)"
target_system = "HepG2"
inequality_sign = "="
observed_measurement = 6

[[record]]
molecule = "C[C@@H]1OC(c2cc(Cl)c3ccccc3c2O)=N[C@@H]1C(=O)OC/C=C/c1ccccc1"
target_system = "HepG2"
inequality_sign = "="
observed_measurement = 10

[[record]]
molecule = "COc1ccc(O)c(C2=N[C@@H](C(=O)OCc3ccccc3)[C@@H](C)O2)c1"
target_system = "HepG2"
inequality_sign = "="
observed_measurement = 100

[[record]]
molecule = "C[C@@H]1[C@H](O)[C@@H](C)/C=C/C=C/C=C/C=C/C=C/C=C/C=C/[C@H](O[C@@H]2O[C@H](C)[C@@H](O)[C@H](N)[C@@H]2O)C[C@@H]2O[C@](O)(C[C@@H](O)C[C@@H](O)[C@H](O)CC[C@@H](O)C[C@@H](O)CC(=O)O[C@H]1C)C[C@H](O)[C@H]2C(=O)O"
target_system = "HepG2"
inequality_sign = "="
observed_measurement = 4


====

Here, each record is paired with measured selectivity ratio data.
# protocol-notes: Selectivity index, ratio of CC50 of human HepG2 cells to MIC of antifungal activity against Candida tropicalis ATCC 200956
# Type: toxicity
endpoint: selectivity ratio

[[record]]
compound = "OC(Cn1cncn1)(Cn1cncn1)c1ccc(F)cc1F"
observed_measurement = "≥ 1"

[[record]]
compound = "C=CCOC(=O)C1N=C(c2cc(Cl)c3ccccc3c2O)O[C@H]1C (single isomer, unassigned)"
observed_measurement = "≥ 11"

[[record]]
compound = "COc1cccc(O)c1C1=N[C@@H](C(=O)OCc2ccccc2)[C@@H](C)O1"
observed_measurement = 6

[[record]]
compound = "C[C@H]1OC(c2cc(F)ccc2O)=N[C@H]1C(=O)OCc1ccccc1"
observed_measurement = "≥ 128"

[[record]]
compound = "C[C@H]1OC(c2cc(Br)ccc2O)=N[C@H]1C(=O)OCc1ccccc1"
observed_measurement = "≥ 88"

[[record]]
compound = "C[C@H]1OC(c2ccc(N=[N+]=[N-])cc2O)=N[C@H]1C(=O)OCc1ccccc1"
observed_measurement = "≥ 100"

[[record]]
compound = "C[C@@H]1[C@H](O)[C@@H](C)/C=C/C=C/C=C/C=C/C=C/C=C/C=C/[C@H](O[C@@H]2O[C@H](C)[C@@H](O)[C@H](N)[C@@H]2O)C[C@@H]2O[C@](O)(C[C@@H](O)C[C@@H](O)[C@H](O)CC[C@@H](O)C[C@@H](O)CC(=O)O[C@H]1C)C[C@H](O)[C@H]2C(=O)O"
observed_measurement = "≥ 16"

